assay: Mice PK study; type: in vivo; settings: plasma; po, 10 mg/kg, CD-1 mouse; read-out: t½ (converted)
READOUT NAME: half-life (h)
Answers are plain numbers, in h.

Record excerpt, results attached:
Please give the measured half-life for this compound: C[C@H]1CN(c2cc(N3CCN(CC4=C(c5ccc(Cl)cc5)CC(C)(C)CC4)CC3)ccc2C(=O)NS(=O)(=O)c2ccc(NCC3CCOCC3)c([N+](=O)[O-])c2)c2cc3cc[nH]c3nc2O1 [Example 9]
4.1

// same read-out, input: CC1(C)CCC(CN2CCN(c3ccc(C(=O)NS(=O)(=O)c4ccc(NCC5(F)CCOCC5)c([N+](=O)[O-])c4)c(N4CC(C)(C)Oc5nc6[nH]ccc6cc54)c3)CC2)=C(c2ccc(Cl)cc2)C1 [Example 7]
3.2

Same lookup for C[C@@H]1CN(c2cc(N3CCN(CC4=C(c5ccc(Cl)cc5)CC(C)(C)CC4)CC3)ccc2C(=O)NS(=O)(=O)c2ccc(NCC3CCOCC3)c([N+](=O)[O-])c2)c2cc3cc[nH]c3nc2O1 [Example 10] , please.
4.1

More entries:
What value of measured half-life is listed for C[C@@H]1CN(c2cc(N3CCN(CC4=C(c5ccc(Cl)cc5)CC(C)(C)CC4)CC3)ccc2C(=O)NS(=O)(=O)c2ccc(NCC3(F)CCOCC3)c([N+](=O)[O-])c2)c2cc3cc[nH]c3nc2O1 [Example 6 (R)] ?
3.2

====

So I've got a bunch of molecules here, and I need their pIC50 values.
tested on: RS4; 11; assay: In vitro anti-proliferation assay (ATPlite) in BCL-2-dependent ALL cell line RS4; 11; type: cell-based; conditions: Homo sapiens, RS4-11, 72 h, read-out: IC50, RS4, 11 5% FBS, about 72 hours, another study
Answers are plain numbers, as −log10 of the molar value.

Some molecules with recorded pIC50:
Given the entry C[C@@H]1CN(c2cc(N3CCN(CC4=C(c5ccc(Cl)cc5)CC(C)(C)CC4)CC3)ccc2C(=O)NS(=O)(=O)c2ccc(NCC3(F)CCOCC3)c([N+](=O)[O-])c2)c2cc3cc[nH]c3nc2O1 [Example 6 (R)] , report its measured pIC50.
8.89

Next up: CC1(C)CCC(CN2CCN(c3ccc(C(=O)NS(=O)(=O)c4ccc(NCC5(F)CCOCC5)c([N+](=O)[O-])c4)c(N4CC(C)(C)Oc5nc6[nH]ccc6cc54)c3)CC2)=C(c2ccc(Cl)cc2)C1 [Example 7]
8.25

Would you kindly repeat that for CC1(C)CCC(CN2CCN(c3ccc(C(=O)NS(=O)(=O)c4ccc(NCC5(F)CCOCC5)c([N+](=O)[O-])c4)c(N4CCOc5nc6[nH]ccc6cc54)c3)CC2)=C(c2ccc(Cl)cc2)C1 [Example 3] ?
8.85

Read the next record carefully.
For the molecule C[C@H]1CN(c2cc(N3CCN(CC4=C(c5ccc(Cl)cc5)CC(C)(C)CC4)CC3)ccc2C(=O)NS(=O)(=O)c2ccc(NCC3(F)CCOCC3)c([N+](=O)[O-])c2)c2cc3cc[nH]c3nc2O1 [Example 6 (S)] , what pIC50 is on record?
8.49

====

experiment: Mice PK study; assay type: in vivo; conditions: plasma; po, 10 mg/kg, CD-1 mouse
Lab note: compare AUC against 20000 ng·h/mL. Equal or greater, write TRUE. Smaller, write FALSE.

State whether the measured AUC reaches 20000 ng·h/mL, counting equality as reaching it, for C[C@@H]1CN(c2cc(N3CCN(CC4=C(c5ccc(Cl)cc5)CC(C)(C)CC4)CC3)ccc2C(=O)NS(=O)(=O)c2ccc(NCC3CCOCC3)c([N+](=O)[O-])c2)c2cc3cc[nH]c3nc2O1
TRUE

CC1(C)CCC(CN2CCN(c3ccc(C(=O)NS(=O)(=O)c4ccc(NCC5(F)CCOCC5)c([N+](=O)[O-])c4)c(N4CC(C)(C)Oc5nc6[nH]ccc6cc54)c3)CC2)=C(c2ccc(Cl)cc2)C1 ?
FALSE

// same read-out, input: C[C@@H]1CN(c2cc(N3CCN(CC4=C(c5ccc(Cl)cc5)CC(C)(C)CC4)CC3)ccc2C(=O)NS(=O)(=O)c2ccc(NCC3(F)CCOCC3)c([N+](=O)[O-])c2)c2cc3cc[nH]c3nc2O1 [Example 6 (R)]
FALSE

Others:
Exam item: decide whether the reported AUC for C[C@H]1CN(c2cc(N3CCN(CC4=C(c5ccc(Cl)cc5)CC(C)(C)CC4)CC3)ccc2C(=O)NS(=O)(=O)c2ccc(NCC3(F)CCOCC3)c([N+](=O)[O-])c2)c2cc3cc[nH]c3nc2O1 [Example 6 (S)] is at least 20000 ng·h/mL.
FALSE

====

test: Mice PK study; assay type: in vivo; conditions: plasma; po, 10 mg/kg, CD-1 mouse; read-out: Bioavailabilty
So I've got a bunch of compounds here, and I need their bioavailability values.
One number for each entry, in %.

Below are worked cases with known answers.
Recorded bioavailability for C[C@H]1CN(c2cc(N3CCN(CC4=C(c5ccc(Cl)cc5)CC(C)(C)CC4)CC3)ccc2C(=O)NS(=O)(=O)c2ccc(NCC3(F)CCOCC3)c([N+](=O)[O-])c2)c2cc3cc[nH]c3nc2O1 [Example 6 (S)] , please?
74

Next record, please: C[C@@H]1CN(c2cc(N3CCN(CC4=C(c5ccc(Cl)cc5)CC(C)(C)CC4)CC3)ccc2C(=O)NS(=O)(=O)c2ccc(NCC3CCOCC3)c([N+](=O)[O-])c2)c2cc3cc[nH]c3nc2O1 [Example 10]
78

Consider the record given below.
// bioavailability lookup, key: CC1(C)CCC(CN2CCN(c3ccc(C(=O)NS(=O)(=O)c4ccc(NCC5(F)CCOCC5)c([N+](=O)[O-])c4)c(N4CC(C)(C)Oc5nc6[nH]ccc6cc54)c3)CC2)=C(c2ccc(Cl)cc2)C1 [Example 7]
90
